Source listed as PubChem BioAssay (NCATS).

Target: Cytochrome P450 3A4 (Homo sapiens)
Assay: qHTS Assay for Activators of Cytochrome P450 3A4 (AID 885); also: nearly all actives have a fitted effect of over 65% in size
Conditions: recombinant CYP3A4, Luciferin-PPXE luminescence, 60 min; series mostly up to 57.1 µM
Calls of active or inactive are those of the source. Calls follow the shape of the dose curve; as a rule, active = well fitted activation curve with a large enough effect; inconclusive = small, poorly fitted or top-dose-only effect; inactive = no such curve, though single readings can be large or run the other way.
Field 'call' accepts YES = active, NO = inactive

Please state the recorded outcome for this compound: "Cn1cccc1C(=O)N1CCC[C@@]2(CCN(c3ccccn3)C2)C1"
NO

Same for "O=C(c1cnccn1)N1CCC[C@@]2(CCN(Cc3nccs3)C2)C1"
NO

Same for "CS(=O)(=O)Nc1cccc(-c2cncnc2NCc2cccs2)c1"
NO

Same for "O=C(c1ccncc1)N1CCC[C@@]2(CCN(c3ccccn3)C2)C1"
NO

Same for "CCNc1ncc2nc(-c3cn(C)c4ccccc34)c(=O)n(-c3ccccc3)c2n1"
NO

Same for "CN1CCN(c2ncnc3ccc(-c4ccc5c(c4)OCO5)cc23)CC1"
NO

Same for CCCCNc1nc(C)nc2c1nc(-c1ccccc1)n2C(C)CCCN(CC)CC (centres undefined)
NO

Same for "CN(C)c1nc(-c2ccoc2)nc2ccccc12"
NO

Same for "COc1ccc(-n2c(=O)c(C)nc3cnc(OC)nc32)cc1"
NO

Same for "Cc1nc(N2CCOCC2)c2nc(-c3ccccc3)n(CCCN3CCOCC3)c2n1"
NO

Same for "O=C(Nc1ccccc1)N1CCCC2(CCN(C(=O)c3ccco3)CC2)C1"
NO

Same for "CC(=O)NCCNc1ncncc1-c1ccccc1C"
NO

Same for COCCNc1nc(C)nc2c1nc(-c1ccccc1)n2C1CCN(Cc2ccccc2)C1 (centres undefined)
NO

Same for "Cc1noc(C)c1-c1ccc2ncnc(NCc3cccnc3)c2c1"
NO

Same for "CN(C)c1ccc(-c2ccc3ncnc(N4CCNCC4)c3c2)cc1"
NO

Same for "Cc1cnc(CNc2ncncc2-c2cccc(C#N)c2)cn1"
NO

Same for CCN1CCCC1Cn1c(-c2ccccc2)nc2c(NC3CCCCC3)nc(C)nc21 (centres undefined)
NO

Same for "O=C(c1cccc(F)c1)N1CCC2(CC1)CCN(c1cccc(-c3ccccc3)c1)CC2"
YES

Same for "CCCCNc1nc(C)nc2c1nc(-c1ccccc1)n2CC1CCN(C)CC1"
NO

Same for "Cc1nc2cnc(N3CCN(C)CC3)nc2n(Cc2ccc(F)cc2)c1=O"
NO

Same for "COCCNc1ncnc2ccc(-c3ccc(C(=O)N(C)C)cc3)cc12"
NO

Same for "COc1cccc(-c2ccc3ncnc(N(C)Cc4ccco4)c3c2)c1"
NO

Same for "CC(=O)NCCNc1ncnc2ccc(-c3c(C)noc3C)cc12"
NO

Same for "O=C(c1ccco1)N1CCC[C@@]2(CCN(Cc3nccs3)C2)C1"
NO
